Measured viability at 10 µM, listed per entry for reference.
Tested on: Colon cancer organoid
Test: Targeting of F14 CAF-induced therapy resistance in O14 CRC organoid-stroma co-culture. Cell viability is reported without Gefitinib.
Type: functional, Homo sapiens
Conditions: Homo sapiens, Concentration 10 uM; read-out: Cell Viability
Give just the number in %; leave the unit off.

Example cases with answers are listed next.
compound	quantitative-readout
O=c1nc(-c2ccccn2)sc2ccccc12	117
COc1ccccc1C(=O)Nc1cc2c(cc1N1CCNCC1C)n(C)c(=O)n2C (stereo not drawn)	98.7

So for "O=C(O)[C@@H]1[C@@H](Cn2nnc3ccccc3c2=O)CC[C@H]1C(=O)c1ccc(OCCC2CCOCC2)cc1" , the logged viability at 10 µM turned out to be 102

The recorded viability at 10 µM for "CCOc1ccc(S(=O)(=O)Nc2ccc(Cl)cc2C#Cc2cnc(C(=O)O)cc2OC)c2ncccc12" is 102

Noted for "Cc1cc(CN)cc(C)c1-c1ncn(C)c1-c1ccnc2cc(F)ccc12" : its viability at 10 µM reads 90.5

Note to self: viability at 10 µM recorded for "O=C(c1ccc(C(=O)N2CCC(N3CCCC3)CC2)c(Nc2ccccc2)c1)N1CCC(N2CCCC2)CC1" was 121

Entry CC(C)(C)OC(=O)N1CCCC1CNC1CCC(c2cc(F)ccc2F)(S(=O)(=O)c2ccc(Cl)cc2)CC1 (stereo not drawn) — recorded viability at 10 µM = 74.5

Sure, the documented viability at 10 µM for "CC(C)N(CCCNC(=O)Nc1ccc(C(C)(C)C)cc1)C[C@H]1O[C@@H](n2cc(Br)c3c(N)ncnc32)[C@H](O)[C@@H]1O" is 69.6

Entry "CNC(=O)c1cc(C(=O)N[C@H]2[C@@H]3COC[C@@H]32)cc2c1O[C@H](CF)[C@H]2c1ccccc1" ; viability at 10 µM = 99.3

Field viability at 10 µM (entry "O=C(Nc1cccnn1)N1CC(C/C=C/c2cncc(Oc3ccc(C(F)(F)F)cn3)n2)C1" ) reads 93.5

The measured viability at 10 µM associated with "O=C(NCc1ncc(C(F)(F)F)cc1Cl)c1ccc2c(c1)C1(CCS(=O)(=O)CC1)[C@@H](C1CC1)N2S(=O)(=O)c1ccc(F)cc1" reads 115

So, "C[C@@H](c1cccc(CN)c1)n1cc(Cl)cc(C(N)=O)c1=N" ? Its viability at 10 µM was 106

Given item "Cc1ccc(NC(=O)Nc2cc(C(F)(F)F)ccc2F)cc1Nc1ccc2c(c1)NC(=O)/C2=C\c1ccc[nH]1" , the value recorded as its viability at 10 µM is 121

Entry under test: "Cc1c(Oc2ccc(F)cc2)c(OC(C)C)nn1-c1ccc(C2CC2)cn1" . Its viability at 10 µM was 84.4

viability at 10 µM in this record for "C[C@@H]1CN(c2cc(-c3nn(C)c4ccc(OC5(C)CC5)cc34)ncn2)C[C@H](C)O1" : 77.2

So, "CC1=CC(C)=[N+]2C1=C(CCCCc1cn(CC(=O)N3CCc4nc(NC(=O)[C@H]5CCN(C#N)C5)sc4C3)nn1)c1c(C)cc(C)n1[B-]2(F)F" ? Its viability at 10 µM was 115

Documented viability at 10 µM of "c1ccc(C2CCN(c3cnc4c(N5CCOCC5)nccn34)CC2)cc1" : 81.3

What the record says about "Cc1cc(=O)n(C)c2cc(N3C(=O)CC[C@H](NS(=O)(=O)CC(C)C)[C@H]3c3ccc(Cl)cc3)ccc12" : viability at 10 µM is 75.8

Value of measured viability at 10 µM for the entry "Cn1cc(Cl)c2c(Oc3c(F)cc(Nc4cc(Cl)nc(N)n4)cc3F)ccnc21" : 85
